target.of.assay: monomeric human LDH‐A (Homo sapiens)
Construct: made in house; host or cells: E. coli BL21(DE3), pET9a (NdeI/BamHI)
assay.explanation: Inhibition by peptides of LDH-A activity gained on assembly of monomeric LDH-A into tetramer
Assay type: biochemical
measurement.parameters: 80 μM peptide incubated 5 min with 6.2 nM monomeric LDH-A, 10 mM Tris-HCl + 10 mM BisTris pH 7.5, started with 125 μM β-NADH and 500 μM pyruvate, 25°C, A340, vs control with 1% DMSO, mean ± SD, n = 3
*1 amine or outer side, *2 acyl side, *3 side chain or, on linkers, in order; H or OH if unused. [ ]: non-standard residue; d: D form. The star is where a group is joined. d(βAsp) = O=C(O)[C@@H](CC(=O)[*:2])N[*:1]; βAsp = O=C(O)[C@H](CC(=O)[*:2])N[*:1]; OBn = c1ccc(CO*)cc1
measured.parameter: Inhibition (%) of LDH‐A activity
Number only, in %; omit the unit.

                                  substance  unit_annotation  reading
0  cyclo(GQN[d(βAsp)]) (SMILES NC(=O)CC[C@@H]1NC(=O)CNC(=O)C[C@H](C(=O)O)NC(=O)[C@H](CC(N)=O)NC1=O) [TH3]                %       26
1  H-KSD[dL]-OH (SMILES CC(C)C[C@@H](NC(=O)[C@H](CC(=O)O)NC(=O)[C@H](CO)NC(=O)[C@@H](N)CCCCN)C(=O)O) [TH19]                %        4
2  H-GQND-OBn (SMILES NCC(=O)N[C@@H](CCC(N)=O)C(=O)N[C@@H](CC(N)=O)C(=O)N[C@@H](CC(=O)O)C(=O)OCc1ccccc1) [TH6]                %       14
3  cyclo(GQN[βAsp]) (SMILES NC(=O)CC[C@@H]1NC(=O)CNC(=O)C[C@@H](C(=O)O)NC(=O)[C@H](CC(N)=O)NC1=O) [TH2]                %       31
4                       H-GQNGISDL-OH [TH1]                %       36
5  cyclo(GQND(OBn)) (SMILES NC(=O)CC[C@@H]1NC(=O)CNC(=O)[C@H](CC(=O)OCc2ccccc2)NC(=O)[C@H](CC(N)=O)NC1=O) [TH15]                %        9

Let us move to another entry and its Inhibition (%) of LDH‐A activity.
Qu. Can you share its Inhibition (%) of LDH‐A activity? I mean this substance: H-GQND(OBn)-OH (SMILES NCC(=O)N[C@@H](CCC(N)=O)C(=O)N[C@@H](CC(N)=O)C(=O)N[C@@H](CC(=O)OCc1ccccc1)C(=O)O) [TH14]
Ans. 15
